Exercise: for every item that follows, state its recorded total protein half-life in vivo.
Assay: total protein half-life in vivo (active degradation + dilution); higher = more stable protein
Details: wild type E. coli NCM3722; growth: C-lim chemostat; doubling time 3 h

MNIRDLEYLVALAEHRHFRRAADSCHVSQPTLSGQIRKLEDELGVMLLERTSRKVLFTQAGMLLVDQARTVLREVKVLKEMASQQGETMSGPLHIGLIPTVGPYLLPHIIPMLHQTFPKLEMYLHEAQTHQLLAQLDSGKLDCVILALVKESEAFIEVPLFDEPMLLAIYEDHPWANRECVPMADLAGEKLLMLEDGHCLRDQAMGFCFEAGADEDTHFRATSLETLRNMVAAGSGITLLPALAVPPERKRDGVVYLPCIKPEPRRTIGLVYRPGSPLRSRYEQLAEAIRARMDGHFDKVLKQAV [P0ACQ4]; 2.62 h
MKVLVTGATSGLGRNAVEFLCQKGISVRATGRNEAMGKLLEKMGAEFVPADLTELVSSQAKVMLAGIDTLWHCSSFTSPWGTQQAFDLANVRATRRLGEWAVAWGVRNFIHISSPSLYFDYHHHRDIKEDFRPHRFANEFARSKAASEEVINMLSQANPQTRFTILRPQSLFGPHDKVFIPRLAHMMHHYGSILLPHGGSALVDMTYYENAVHAMWLASQEACDKLPSGRVYNITNGEHRTLRSIVQKLIDELNIDCRIRSVPYPMLDMIARSMERLGRKSAKEPPLTHYGVSKLNFDFTLDITRAQEELGYQPVITLDEGIEKTAAWLRDHGKLPR; 2.62 h
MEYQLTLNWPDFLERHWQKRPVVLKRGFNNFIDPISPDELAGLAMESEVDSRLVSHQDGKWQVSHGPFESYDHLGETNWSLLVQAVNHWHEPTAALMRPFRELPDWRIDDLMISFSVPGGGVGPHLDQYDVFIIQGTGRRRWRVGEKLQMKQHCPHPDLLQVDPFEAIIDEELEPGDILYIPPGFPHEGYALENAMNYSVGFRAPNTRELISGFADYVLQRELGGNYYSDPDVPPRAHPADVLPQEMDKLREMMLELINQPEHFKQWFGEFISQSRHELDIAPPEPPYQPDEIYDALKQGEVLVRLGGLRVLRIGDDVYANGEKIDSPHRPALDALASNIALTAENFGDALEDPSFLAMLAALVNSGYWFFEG; 3.12 h
MTITDLVLILFIAALLAFAIYDQFIMPRRNGPTLLAIPLLRRGRIDSVIFVGLIVILIYNNVTNHGALITTWLLSALALMGFYIFWIRVPKIIFKQKGFFFANVWIEYSRIKAMNLSEDGVLVMQLEQRRLLIRVRNIDDLEKIYKLLVSTQ; 2.77 h

Continue with the next sequence.
In: What value of total protein half-life in vivo has been reported for the following sequence? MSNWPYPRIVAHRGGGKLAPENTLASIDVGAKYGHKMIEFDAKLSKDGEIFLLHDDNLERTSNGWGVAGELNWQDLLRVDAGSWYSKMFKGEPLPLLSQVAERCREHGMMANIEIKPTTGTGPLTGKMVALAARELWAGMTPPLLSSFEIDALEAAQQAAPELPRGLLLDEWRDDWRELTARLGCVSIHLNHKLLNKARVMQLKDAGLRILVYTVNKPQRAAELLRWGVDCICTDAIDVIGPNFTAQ
Out: 3.33 h
